# Test: gradient 5% acetonitrile 3 min, to 50% in 2 min, to 85% in 15 min, held 3 min, 100 µL/min
# Assay Setup: column: Zorbax Extend-C18 2.1 x 50 mm; eluents: water / acetonitrile, 0.1% formic acid
Property: RP-LC retention time

# example entries with known answers
# Compound, RP-LC retention time
measured = [
    ("Cc1ccc2c(=O)c(C(=O)N3CCCC3)cn(CC(=O)Nc3ccc(F)c(F)c3)c2n1", "720 s"),
    ("COc1ccc(CNC(=O)c2ccc3c(c2)nc2n3CCN(C(C)C)C2=O)c(OC)c1", "708 s"),
]

Record RP-LC retention time per entry; entries follow.
1. O=C(Nc1ccccc1F)C1COc2ccccc2C1 (configuration not stated)
2. CCn1cnc2cc(-c3noc(C4CC(=O)N(c5ccc(C)cc5)C4)n3)ccc21 (configuration not stated)
3. COCCCNC(=O)C1CCN(S(=O)(=O)c2ccc3c(c2)NC(=O)CO3)CC1
4. CCN1CCC2(CC1)OC(=O)C(C)=C2C(=O)NCC(C)c1ccccc1 (configuration not stated)
5. Cc1cccc(OCC(=O)N2CCCC(c3n[nH]c(C4CC4)n3)C2)c1 (configuration not stated)
6. COc1ccc(NS(=O)(=O)c2sc3ccc(Cl)cc3c2C)cc1N1CCNCC1
7. CCc1noc(NC(C)=O)c1-c1ccc(OC)c(S(=O)(=O)NCc2ccc(OC)cc2)c1
8. Cc1c(-c2ccnc(N3CCN(Cc4ccccc4)CC3)n2)cnc2ncnn12

Found:
874 s
700 s
627 s
630 s
687 s
781 s
758 s
588 s

Record RP-LC retention time per entry; entries follow.
1. CC(=O)c1cccc(NC(=O)CN2CCCN(Cc3cccc(F)c3)S2(=O)=O)c1
2. COc1cccc(C(=O)Nc2ccc(CC(=O)NCC(F)(F)F)cc2)c1OC

Found:
880 s
764 s

Record RP-LC retention time per entry; entries follow.
1. CCS(=O)(=O)N1CC(=O)N(Cc2cccc(C)c2)C(C)(C(=O)NCc2ccc(F)cc2)C1 (configuration not stated)
2. CCOC(=O)N1CCC2(CC1)OC(=O)C(C)=C2C(=O)Nc1cccc(OC)c1
3. Cc1ccc(N2CCC(NC(=O)c3ccc(F)c(F)c3)C2=O)cc1C (configuration not stated)
4. Cc1ccccc1-n1ccn(Cc2nc(-c3ccc(F)c(Cl)c3)no2)c(=O)c1=O
5. CCn1cc(-c2nc(C(=O)Nc3cc(F)ccc3Cl)cs2)c2cccnc21
6. COCc1nnc(-c2ccc3c(c2)OCO3)o1
7. Cc1ccc(NC(=O)N2CC(c3nc(CCOCC4CCCC4)no3)C2)cc1C

Found:
1. 882 s
2. 845 s
3. 918 s
4. 942 s
5. 1330 s
6. 722 s
7. 1060 s
